target: AGTR1 (Homo sapiens); construct: host or cells: Pathunter CHO-K1 AGTR1 β-arrestin cell line (CHO-K1); assay: DiscoveRx IP1 accumulation assay (HTRF), agonist mode, Pathunter CHO-K1 AGTR1 β-arrestin cell line; assay type: cell-based; conditions: read-out: IP-1 EC50
Sequence (P30556 whole entry): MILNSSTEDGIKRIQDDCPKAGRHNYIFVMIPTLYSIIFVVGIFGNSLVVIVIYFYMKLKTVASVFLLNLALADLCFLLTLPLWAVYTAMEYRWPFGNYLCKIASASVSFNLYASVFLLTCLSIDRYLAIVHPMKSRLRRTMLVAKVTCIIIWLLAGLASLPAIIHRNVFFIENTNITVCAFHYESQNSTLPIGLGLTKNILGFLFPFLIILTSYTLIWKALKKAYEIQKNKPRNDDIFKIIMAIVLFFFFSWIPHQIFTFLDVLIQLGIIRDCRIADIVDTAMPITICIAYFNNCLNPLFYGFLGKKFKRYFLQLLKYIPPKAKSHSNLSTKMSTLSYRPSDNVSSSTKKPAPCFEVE
For each of the molecules below, state its EC50.
Write the answer as a number in µM, unit excluded.

Specify EC50 for `CCCCC1=NC2(CCCC2)C(=O)N1Cc1ccc(-c2cc(-c3cccc(C(F)(F)F)n3)ccc2-c2nn[nH]n2)cc1` and stop.
0.14

Give reported EC50 value for `CCCCC1=NC2(CCCC2)C(=O)N1Cc1ccc(-c2cc(N3CCCC(C)(C)C3)ccc2-c2nn[nH]n2)cc1`
0.723

Give the reported value of EC50 for this record: `CCc1nc2c(C)cc(C)nc2n1Cc1ccc(-c2cc(-n3cc4ccccc4n3)ccc2-c2nnn[nH]2)cc1`
0.0291

Give the reported value of EC50 for this record: `CCc1nc2c(C)cc(C)nc2n1Cc1ccc(-c2cc(-c3cn(CC4CC4)nn3)ccc2-c2nnn[nH]2)cc1`
0.0797

Given the molecule `CCc1nc2c(C)cc(C)nc2n1Cc1ccc(-c2cc(Oc3cccc(Cl)c3)ccc2-c2nnn[nH]2)cc1` , write its reported EC50.
0.0354

Specify measured EC50 for `CCc1nc2c(C)cc(C)nc2n1Cc1ccc(-c2cc(-c3cccc(C)c3)ccc2-c2nnn[nH]2)nn1` .
0.118

Annotate the molecule `Cc1ccnc(-c2ccc(-c3nn[nH]n3)c(-c3ccc(CN4C(=O)C5(CCCC5)N=C4C(C)C)cc3)c2)c1` with its measured EC50.
0.155

State its EC50: `CCc1nc2c(C)cc(C)nc2n1Cc1ccc(-c2cc(-c3ccc(C)cc3)ccc2-c2nn[nH]n2)cc1`
0.499

Input CCCC1=NC2(CCOC2)C(=O)N1Cc1ccc(-c2cc(-c3ccccc3)ccc2-c2nnn[nH]2)cc1 (single isomer, unassigned) , output reported EC50.
0.235

Give the value of EC50 reported for the following: `CCc1nc2c(C)cc(C)nc2n1Cc1ncc(-c2cc(-c3cccc(C)c3)ccc2C(=O)O)cn1`
0.646
